The reported numbers originate from patent US20050256034A1.

# testDescription: 3H-Thymidine Incorporation Assay (24 hr drug, wash, another 48 hr; 72 hr assay)
# Type: cell-based
# condition: ratio of IC50 CEM/dCK- to IC50 CCRF-CEM, 24 h exposure
Listing of recorded Factor (Resistance Factor = Ratio of dCK- on Wild-type CCRF-CEM) by entry.
Keep the answer to the number alone.

Solved entries (count: 4):
{"compound": "Nc1ccn([C@@H]2CO[C@H](COC(=O)Cc3ccccc3)O2)c(=O)n1", "dataValue": 400}
{"compound": "Nc1ccn([C@@H]2CO[C@H](COC3CCCCO3)O2)c(=O)n1 (stereo partly shown)", "dataValue": 5}
{"compound": "CC(=O)OCC1OC2OC(C)(OC[C@H]3OC[C@@H](n4ccc(NC(=O)OCc5ccccc5)nc4=O)O3)OC2C(OC(C)=O)C1OC(C)=O (stereo partly shown)", "dataValue": 4}
{"compound": "Nc1ccn([C@@H]2CO[C@H](COC/C=C/c3ccccc3)O2)c(=O)n1.O=C(O)C(F)(F)F", "dataValue": 1.5}

Quote Factor (Resistance Factor = Ratio of dCK- on Wild-type CCRF-CEM) reported for CCOC(=O)Nc1ccn([C@@H]2CO[C@H](CO)O2)c(=O)n1 please.
63

Please give measured Factor (Resistance Factor = Ratio of dCK- on Wild-type CCRF-CEM) of the following entry: CCCCCCOC(=O)OC[C@H]1OC[C@@H](n2ccc(NC(=O)OCc3ccccc3)nc2=O)O1
86

Complete the entry with Factor (Resistance Factor = Ratio of dCK- on Wild-type CCRF-CEM) for O=C(O)C(F)(F)F.O=c1nc(NC/C=C/c2ccccc2)ccn1[C@@H]1CO[C@H](CO)O1
40

====

Reported pIC50 values for a set of molecules
# testDescription: 3H-Thymidine Incorporation Assay (24 hr drug, wash, another 48 hr; 72 hr assay)
# Type: cell-based
# condition: NCI-H460, read-out: IC50 (3H-TdR incorporation at 72 hr) H-460 24 h, H-460 human lung carcinoma; 24 hr exposure to drug, wash, another 48 hr
The value called pIC50 is obtained by taking minus log10 of the concentration in mol/L.

{"molecule": "Nc1ccn([C@@H]2CO[C@H](COC(=O)c3ccc(Cl)c(Cl)c3)O2)c(=O)n1", "pIC50": 8.85}

Supply recorded pIC50 for CC(C)(C(=O)OC[C@H]1OC[C@@H](n2ccc(N)nc2=O)O1)c1ccccc1[N+](=O)[O-].Cl [Compound 224, HYDROCHLORIDE SALT] here.
5.28

Give pIC50 for the following molecule: O=C(Nc1ccn([C@@H]2CO[C@H](COC(=O)OCc3ccc([N+](=O)[O-])cc3)O2)c(=O)n1)OCc1ccc([N+](=O)[O-])cc1
6.85

Tell us which pIC50 value is on record for Nc1ccn([C@@H]2CO[C@H](COC(=O)c3ccc(C(F)(F)F)cc3)O2)c(=O)n1
8.92

====

Recorded Factor (Resistance Factor = Ratio of dCK- on Wild-type CCRF-CEM) values for a group of compounds are listed next.
# testDescription: 3H-Thymidine Incorporation Assay (24 hr drug, wash, another 48 hr; 72 hr assay)
# Format: cell-based
# condition: ratio of IC50 CEM/dCK- to IC50 CCRF-CEM, 24 h exposure

// worked examples, Factor (Resistance Factor = Ratio of dCK- on Wild-type CCRF-CEM) included
{"compound": "CCCCCCNC(=O)OC[C@H]1OC[C@@H](n2ccc(N)nc2=O)O1", "dataValue": ">6"}
{"compound": "O=C(Nc1ccn([C@@H]2CO[C@H](CO)O2)c(=O)n1)Oc1ccc(Cl)cc1.O=C(O)C(F)(F)F", "dataValue": ">476"}
{"compound": "CCOC(=O)Nc1ccn([C@@H]2CO[C@H](COC(=O)OCC)O2)c(=O)n1", "dataValue": 34}
{"compound": "CC(OC[C@H]1OC[C@@H](n2ccc(N)nc2=O)O1)OC1CCCCC1 (stereo partly drawn)", "dataValue": 77}
{"compound": "CCCCCCNC(=O)Nc1ccn([C@@H]2CO[C@H](CO)O2)c(=O)n1", "dataValue": 1}

Provide only the value of recorded Factor (Resistance Factor = Ratio of dCK- on Wild-type CCRF-CEM) for Nc1ccn([C@@H]2CO[C@H](COC(=O)Oc3ccc(Cl)cc3)O2)c(=O)n1.O=C(O)C(F)(F)F
2 393

Identify Factor (Resistance Factor = Ratio of dCK- on Wild-type CCRF-CEM) associated with the compound COc1ccc(C(OC[C@H]2OC[C@@H](n3ccc(N)nc3=O)O2)(c2ccccc2)c2ccccc2)cc1
3

Identify measured Factor (Resistance Factor = Ratio of dCK- on Wild-type CCRF-CEM) associated with CCC(C)(C)OC(C)OC[C@H]1OC[C@@H](n2ccc(N)nc2=O)O1 (mixture of isomers)
494

Hello, please tell me recorded Factor (Resistance Factor = Ratio of dCK- on Wild-type CCRF-CEM) for this one: CC(C)CCCCC(=O)Nc1ccn([C@@H]2CO[C@H](COC(=O)CCCCC(C)C)O2)c(=O)n1
957

Give the reported value of Factor (Resistance Factor = Ratio of dCK- on Wild-type CCRF-CEM) for this record: Nc1ccn([C@@H]2CO[C@H](CO[C@@H]3O[C@H](CO)[C@@H](O)[C@H]3O)O2)c(=O)n1.O=C(O)C(F)(F)F
38

Read the entry O=C(Nc1ccn([C@@H]2CO[C@H](CO)O2)c(=O)n1)Oc1ccccc1 and write its reported Factor (Resistance Factor = Ratio of dCK- on Wild-type CCRF-CEM).
1,300

Kindly indicate its recorded Factor (Resistance Factor = Ratio of dCK- on Wild-type CCRF-CEM). Item: O=C(NCc1ccccc1)Nc1ccn([C@@H]2CO[C@H](COC(=O)NCc3ccccc3)O2)c(=O)n1
>100
